- System: MS2 coat protein
- protocol: apparent KD of MS2 coat protein; designed switch direction (-1 OFF switch, 1 ON switch): -1; higher = weaker reporter binding
- conditions: input ligand: FMN 200 uM
// bucketize apparent KD of MS2 coat protein: bottom = under 40 nM, middle = from 40 nM up to 80 nM, top = 80 nM and over

Use these answered entries as a reference point.
{"sequenceContent": "AAGGCGUCAGGAUAUCCAAUAUAUGACAUGAGGAUCACCCAUGUUUCCACUCGUACCUCCGGAGAAGGGACAAAUA [Ex5 #87] (Eterna round: R97, puzzle: Exclusion 5)", "className": "bottom"}
{"sequenceContent": "GGACACUGAGGAUAUACAAUUCAGGUCCUCCUGUAGAGUAUACAUGAGGAUCACCCAUGUAGAAGGCAGACCAA [Aronberiat] (Eterna round: R97, puzzle: Exclusion 2)", "className": "top"}

Incoming: Kindly identify the class of AAUUUGUGAGGAUAUCCAAUAUAUGACAUGAGGAUCACCCAUGUUUCCACUCGUACCUCCGGAGAAGGCACUGCAA [Ex5 #38] (Eterna round: R97, puzzle: Exclusion 5) .
Outgoing: bottom

Incoming: Any idea which band UAUUAGCAAGCAAAUGGGUACAUGAGGAUCACCCAUGUGCUCGUCUUAUAAGGUACUGUGACGAAAGUCCCGGUACC [mod--Eli6] (Eterna round: R97, puzzle: Sensor, turn-off variant 1) is in?
Outgoing: bottom

Incoming: # classify by apparent KD of MS2 coat protein band: GCGUAGUAUGUAGGAUAUCGGUCAGUUUCUGAUCGAGAAGGACAUGAGGAUCACCCAUGUAAAACGCCCGCUUUGUGGGUACGC [JL ENG1 3.59] (Eterna round: R96, puzzle: Exclusion NG 1)
Outgoing: middle

Incoming: Note: place this sequence into its band. Item: UGAGCAUCAGGAUAUACAAGGCGACCGUGAGGUCGAGGGUUACAUGAGGAUCACCCAUGUAGAAGGGAUGUUCU [jl-ex2-4.09] (Eterna round: R97, puzzle: Exclusion 2)
Outgoing: top

Incoming: # classify by apparent KD of MS2 coat protein band: AGCUGUGGCCGAGGAUAUCCACAUGAGGAUCACCCAUGUCGAUACGCCGUUAAAGGCGAUAUAAGGGAGAAGGCGGUCUCAGCA [Eli eng2 - 052] (Eterna round: R96, puzzle: Exclusion NG 2)
Outgoing: bottom

Incoming: Field: class (apparent KD of MS2 coat protein) — entry: CCCAGUUAGAGAGGAUAUCGUACAUGAGGAUCACCCAUGUAAUAAAUGAGGAUUUCGGGUGUCUACGAGAAGGCUCGGAUAGGC [Ostracism 30 - Jieux - Exclusion NG 2] (Eterna round: R96, puzzle: Exclusion NG 2)
Outgoing: middle

Incoming: Tag the class for CUGAGUAGUCAGGAUAUGUGGUACAAAAGUACUGCAGAAGGGAUUACAUGAGGAUCACCCAUGUUAUCUUCAUG [Omei Ex6 B19] (Eterna round: R97, puzzle: Exclusion 6)
Outgoing: top

Incoming: Any idea which band UGAACUGUAGGAUAUACAUGAGGAUCACCCAUGUCCCUUCGAUGAGGUCCCACCACGUGUAGAAGGAUGGAAGA [Eternabot (L1) Solution 11] (Eterna round: R97, puzzle: Exclusion 3) is in?
Outgoing: bottom
